- assay.system: Glucose-dependent insulinotropic receptor (Homo sapiens) (UniProt Q8TDV5)
- Sequence (whole entry): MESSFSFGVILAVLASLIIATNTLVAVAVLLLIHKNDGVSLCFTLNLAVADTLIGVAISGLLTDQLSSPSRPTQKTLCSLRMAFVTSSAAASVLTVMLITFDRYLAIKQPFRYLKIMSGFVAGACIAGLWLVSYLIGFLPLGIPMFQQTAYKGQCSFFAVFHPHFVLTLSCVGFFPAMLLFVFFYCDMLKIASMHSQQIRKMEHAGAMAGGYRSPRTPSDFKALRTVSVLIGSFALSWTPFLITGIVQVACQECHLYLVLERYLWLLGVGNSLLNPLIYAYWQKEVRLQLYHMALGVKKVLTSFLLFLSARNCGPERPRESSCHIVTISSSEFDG
- protocol.details: Agonist activity at human GPR119 receptor expressed in CHO-K1 cells assessed as cAMP accumulation after 30 mins by HTRF assay relative to AR231453
- Format: functional, cell-based
Each record is given true if its reported Emax is strictly below 80%. Records at or above 80% are given false.

Example cases with answers are listed next.
>>> print(df.to_string())
                            chemical_smiles  label_class
0  CC(C)(C)OC(=O)N1CCC(CCCCNc2ccc3c(c2)CCS3(=O)=O)CC1         true
1  CC(C)(C)OC(=O)N1CCC(CCCNc2ccc3c(c2)NNS3(=O)=O)CC1        false
2  CC(C)(C)OC(=O)N1CCC(CCCC(=O)Nc2ccc3c(c2)CCS3(=O)=O)CC1         true
3  CC(C)(C)OC(=O)N1CCC(CCCNc2ccc3c(c2)C(=O)NC3)CC1        false

Now look at this entry.
Lookup: Is it true that Emax reported for CC(C)(C)OC(=O)N1CCC(CCCOc2ccc3c(c2)CCS3(=O)=O)CC1 is less than 80%?
Found: false
